Please provide measured EC50 for the entries that follow.
Biological target: Parathyroid hormone/parathyroid hormone-related peptide receptor (Homo sapiens, UniProt Q03431)
Sequence (Q03431 whole entry): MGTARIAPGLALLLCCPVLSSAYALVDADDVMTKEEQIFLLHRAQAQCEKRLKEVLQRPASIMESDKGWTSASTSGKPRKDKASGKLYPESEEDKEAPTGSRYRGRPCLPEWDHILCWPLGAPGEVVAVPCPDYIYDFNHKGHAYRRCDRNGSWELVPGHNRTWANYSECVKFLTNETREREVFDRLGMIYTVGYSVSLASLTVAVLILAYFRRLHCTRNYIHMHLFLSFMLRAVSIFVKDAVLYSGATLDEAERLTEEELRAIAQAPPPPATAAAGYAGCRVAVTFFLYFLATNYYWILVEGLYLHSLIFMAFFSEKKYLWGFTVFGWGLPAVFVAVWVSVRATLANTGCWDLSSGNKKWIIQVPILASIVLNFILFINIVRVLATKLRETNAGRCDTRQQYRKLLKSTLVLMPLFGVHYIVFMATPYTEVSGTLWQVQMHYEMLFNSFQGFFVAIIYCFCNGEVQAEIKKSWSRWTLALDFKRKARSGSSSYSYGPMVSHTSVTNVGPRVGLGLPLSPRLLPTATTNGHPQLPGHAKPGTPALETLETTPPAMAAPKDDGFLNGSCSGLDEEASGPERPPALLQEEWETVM
Experiment: Agonist activity at recombinant human PTHR1 expressed in pig LLC-PK1 cells assessed as increase in cAMP production measured after 20 mins by EIA
# unit: µM | format: bare number

EC50 reading for CC[C@H]1CC[C@H](C2=NC3(CCN(S(=O)(=O)CCc4c(C)cc(N(C)C(N)=O)cc4C)CC3)C(=O)N2)CC1 : 33

The value of EC50 measured for the compound Cc1cc(N2C(=O)CNC2=O)cc(C)c1CCS(=O)(=O)N1CCC2(CC1)N=C([C@H]1CC[C@H](C)CC1)NC2=O turned out to be 32

---

assay: Clearance in human liver microsomes at 1 uM measured after 30 mins in presence of NADPH by LC-MS/MS analysis; type: ADME, Microsome; conditions: read-out: CLH
Friendly reminder: microsomal CLint at 1 µM below 50 µL/min/mg is 1, at or above is 0.

For Cc1cc(N2C(=O)N(C)C(=O)C2(C)C)cc(C)c1CCS(=O)(=O)N1CCC2(CC1)N=C(c1ccc(OC(F)(F)F)cc1)NC2=O , is the recorded microsomal CLint at 1 µM below the cut-off of 50 µL/min/mg?
0

Input Cc1cc(N2C(=O)NC(=O)C2C)cc(C)c1CCS(=O)(=O)N1CCC2(CC1)N=C(c1ccc(OC(F)(F)F)cc1)NC2=O (centres undefined) ; condition: microsomal CLint at 1 µM strictly below 50 µL/min/mg. Does it hold?
0

Here's an entry: Cc1cc(N2C(=O)CNC2=O)cc(C)c1CCS(=O)(=O)N1CCC2(CC1)N=C(c1ccc(OC(F)(F)F)cc1)NC2=O . Is its microsomal CLint at 1 µM below 50 µL/min/mg?
0

Does this compound meet the criterion microsomal CLint at 1 µM < 50 µL/min/mg? CCC1(CC)C(=O)NC(=O)N1c1cc(C)c(CCS(=O)(=O)N2CCC3(CC2)N=C(c2ccc(OC(F)(F)F)cc2)NC3=O)c(C)c1
1

Check if microsomal CLint at 1 µM falls below 50 µL/min/mg for Cc1cc(N2C(=O)NC(=O)C2(C)C)cc(C)c1CCS(=O)(=O)N1CCC2(CC1)N=C(c1ccc(OC(F)(F)F)cc1)NC2=O .
1

Find out if reported microsomal CLint at 1 µM for Cc1cc(N2C(=O)NC(=O)C23CCCC3)cc(C)c1CCS(=O)(=O)N1CCC2(CC1)N=C(c1ccc(OC(F)(F)F)cc1)NC2=O is less than 50 µL/min/mg
1

Consider Cc1cc(N(C)C(N)=O)cc(C)c1CCS(=O)(=O)N1CCC2(CC1)N=C(c1ccc(OC(F)(F)F)cc1)NC2=O . Does its microsomal CLint at 1 µM lie strictly below 50 µL/min/mg?
1

Quick check: does Cc1cc(N2C(=O)CNC2=O)cc(C)c1CCS(=O)(=O)N1CCC2(CC1)N=C([C@H]1CC[C@H](C)CC1)NC2=O have microsomal CLint at 1 µM under 50 µL/min/mg?
0

Bench note: check whether CC[C@H]1CC[C@H](C2=NC3(CCN(S(=O)(=O)CCc4c(C)cc(N(C)C(N)=O)cc4C)CC3)C(=O)N2)CC1 shows microsomal CLint at 1 µM below 50 µL/min/mg
0

---

Exercise: state measured EC20 for each of the molecules provided.
Target: Parathyroid hormone/parathyroid hormone-related peptide receptor (Homo sapiens)
Sequence (whole entry): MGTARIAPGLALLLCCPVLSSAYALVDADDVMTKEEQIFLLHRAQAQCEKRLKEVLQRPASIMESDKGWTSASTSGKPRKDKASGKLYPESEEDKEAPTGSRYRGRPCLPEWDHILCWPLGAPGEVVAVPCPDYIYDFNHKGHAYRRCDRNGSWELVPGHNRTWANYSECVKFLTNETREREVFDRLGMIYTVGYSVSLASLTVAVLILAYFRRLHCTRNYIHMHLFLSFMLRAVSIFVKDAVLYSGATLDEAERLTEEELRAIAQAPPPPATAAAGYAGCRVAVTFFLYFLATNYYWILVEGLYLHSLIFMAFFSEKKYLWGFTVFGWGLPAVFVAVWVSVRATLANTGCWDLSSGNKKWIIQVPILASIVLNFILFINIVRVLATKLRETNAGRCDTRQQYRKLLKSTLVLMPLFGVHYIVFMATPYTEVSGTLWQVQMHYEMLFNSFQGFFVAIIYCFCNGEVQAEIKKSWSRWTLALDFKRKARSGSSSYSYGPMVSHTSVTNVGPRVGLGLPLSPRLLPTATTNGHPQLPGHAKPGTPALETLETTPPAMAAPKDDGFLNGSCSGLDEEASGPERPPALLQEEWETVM
Conditions: LLC-PK1

What the record says about CC[C@H]1CC[C@H](C2=NC3(CCN(S(=O)(=O)CCc4c(C)cc(N(C)C(N)=O)cc4C)CC3)C(=O)N2)CC1 : EC20 is 2.2 µM

For record CCC1(CC)C(=O)NC(=O)N1c1cc(C)c(CCS(=O)(=O)N2CCC3(CC2)N=C(c2ccc(OC(F)(F)F)cc2)NC3=O)c(C)c1 the listed EC20 is 7.4 µM

Recorded result, Cc1cc(N2C(=O)CNC2=O)cc(C)c1CCS(=O)(=O)N1CCC2(CC1)N=C([C@H]1CC[C@H](C)CC1)NC2=O , EC20: 6 µM

Note to self: EC20 recorded for Cc1cc(N2CC(=O)NC2=O)cc(C)c1CCS(=O)(=O)N1CCC2(CC1)N=C(c1ccc(OC(F)(F)F)cc1)NC2=O was > 100 µM

Query Cc1cc(N2C(=O)NC(=O)C2(C)C)cc(C)c1CCS(=O)(=O)N1CCC2(CC1)N=C(c1ccc(OC(F)(F)F)cc1)NC2=O [PCO-371] yields EC20 of 1.1 µM

---

assay: Half life in rat at 2 mg/kg, iv by LC-MS/MS analysis; type: ADME, organism-based; conditions: in vivo
Observed property: half-life (h)
Write it as a number; the unit h goes unstated.

So, Cc1cc(N2C(=O)NC(=O)C2(C)C)cc(C)c1CCS(=O)(=O)N1CCC2(CC1)N=C(c1ccc(OC(F)(F)F)cc1)NC2=O [PCO-371] ? Its half-life was 1.3

---

assay: Volume of distribution at steady state in rat at 2 mg/kg, iv by LC-MS/MS analysis; type: ADME, organism-based; conditions: in vivo, read-out: Vdss
Observed property: Vd (L/kg)
Reply with just the number (in L/kg).

Kindly note the recorded Vd for Cc1cc(N2C(=O)NC(=O)C2(C)C)cc(C)c1CCS(=O)(=O)N1CCC2(CC1)N=C(c1ccc(OC(F)(F)F)cc1)NC2=O , which is 3.04
